Target: T1, mature myostatin (human, UniProt O14793 267-375)
T1 sequence (looked up): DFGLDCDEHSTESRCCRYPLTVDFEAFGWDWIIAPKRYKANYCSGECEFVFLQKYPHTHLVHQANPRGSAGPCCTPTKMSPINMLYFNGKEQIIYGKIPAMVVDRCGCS
Procedure Text: SPR
Test Readout: pKd
Units for pKd: none; it is -log10 of a concentration expressed in mol/L.

Param item = N-terminal region of myostatin prodomain (PRO43-115) (domain or fragment, human, UniProt O14793 43-115, looked up) TWRQNTKSSRIEAIKIQILSKLRLETAPNISKDVIRQLLPKAPPLRELIDQYDVQRDDSSDGSLEDDDYHATT ; retrieve measured pKd.
5.43
